Hey, just so you know, these numbers are from PubChem BioAssay (NCI).

Test system: HL-60(TB) leukemia
EXPERIMENT: NCI tumour cell line growth inhibition, 48 h
METRIC: TGI

{"MOLECULE": "Nc1c([N+](=O)[O-])nc(Cl)c2nncn12", "TGI": "> 100 µM"}

Lookup: I am curious: what TGI value has been reported for CCCCC1(C)C=C/C(=C2/C(=O)O/C(=C\C(=O)O)C2=O)O1 (stereo not drawn) ?
Found: > 100 µM

Lookup: Query: TGI; subject: COc1ccc(OC)c(CNc2ccc(C(=O)O)cc2)c1
Found: > 100 µM

* * *

Tested on: MCF7 breast
EXPERIMENT: NCI tumour cell line growth inhibition, 48 h
METRIC: TGI

The following molecules have reported results that may help.
{"MOLECULE": "COc1cc2c(c(O)c1OC)C(=O)[C@@H]1CCC(=O)N1C2", "TGI": "> 100 µM"}
{"MOLECULE": "COC(=O)c1ccc2c(c1)S/C(=C/c1ccc3ccc4cccc5ccc1c3c45)S2", "TGI": "> 100 µM"}
{"MOLECULE": "COC(=O)[C@]1(NC(=O)c2ccccc2)C[C@H]1C=O", "TGI": "> 100 µM"}
{"MOLECULE": "Nc1nc(Nc2ccccc2)c2[nH]cnc2n1", "TGI": "> 100 µM"}
{"MOLECULE": "CC(=O)NC1C(OCc2ccccc2)OC(CO)C(O)C1OC(C)C(=O)NC(C)C(=O)NC(CCC(=O)NCCCCNc1c2ccccc2nc2cccc([N+](=O)[O-])c12)C(N)=O (stereo not given)", "TGI": "0.652 µM"}

Lookup: Observed TGI on MCF7 breast for COC(=O)c1cc2c(c3c1CC(Cc1ccccc1)C3=O)CCC2 (stereo not given) , please.
Found: > 100 µM

Lookup: # get_value(readout= TGI, system= MCF7 breast) for COc1ccc(NC(=O)C2CCC(CNS(=O)(=O)c3ccccc3)CC2)cc1OC (stereo not given)
Found: > 100 µM

Lookup: Fill in the recorded TGI for this molecule, with MCF7 breast as test system: COc1ccc(OC)c(N(CN2C(=O)CCC2C(=O)O)C(C)=O)c1 (stereo not given)
Found: > 100 µM

Lookup: Form field: TGI recorded for Cc1cc(N(CCCNc2ccnc3cc(Cl)ccc23)Cc2ccco2)nc(N2CCN(C)CC2)n1 with MCF7 breast (enter value)
Found: 13.9 µM

Lookup: Please tell me: TGI of O=CNCNCCO , system MCF7 breast?
Found: > 100 µM

* * *

Tested on: SR leukemia
EXPERIMENT: NCI tumour cell line growth inhibition, 48 h
METRIC: TGI

Lookup: Enter reported TGI observed with SR leukemia for O=[N+]([O-])c1ccc(-c2nc3ccc(Cl)cc3[nH]2)cc1
Found: > 100 µM

Lookup: Please tell me: TGI of CC1=C(CC(=O)c2cccc([N+](=O)[O-])c2)C(=O)c2ccccc2C1=O , system SR leukemia?
Found: 12.6 µM

* * *

Test system: HCC-2998 colon
EXPERIMENT: NCI tumour cell line growth inhibition, 48 h
METRIC: TGI (µM)
Supply the numeric figure in µM, leaving out any unit text.

Use the examples below as a reference point.
{"COMPOUND": "COc1cc(/C=C/C(=O)c2cccc(-n3cc(-c4ccc(Cl)cc4)[nH]c3=O)c2)cc(OC)c1OC", "UNIT SYMBOL": "µM", "TGI": 7.36}
{"COMPOUND": "CCN1CCC(O)(/C=C/c2ccccc2C)C(C(=O)/C=C/c2ccccc2C)C1 (stereo not given)", "UNIT SYMBOL": "µM", "TGI": 2.61}
{"COMPOUND": "COC(=O)[C@H]1CCCN1C(=O)[C@H]1CCCN1C(=O)[C@@H](Cc1c[nH]c2ccccc12)NC(=S)Nc1cc(C(F)(F)F)cc(C(F)(F)F)c1", "UNIT SYMBOL": "µM", "TGI": 3.3}

Please turn your attention to the following entry.
Lookup: What TGI appears in the records for this compound with HCC-2998 colon? CCCCCCCC1(N=[N+]=[N-])C(=O)Nc2ccccc2C1=O (stereo not given)
Found: 39.9

* * *

Test system: T-47D breast
EXPERIMENT: NCI tumour cell line growth inhibition, 48 h; in the data active = GI50 below about 0.43 µM; inactive = the rest
Where a SMILES comes first, the peptide text is derived from it. The star is where a group is joined. Palmitoyl = CCCCCCCCCCCCCCCC(=O)*
Choose one outcome from this list and give only that: active, inactive

Consider the following illustrative entries.
{"COMPOUND": "c1ccc(-c2nc(N3CCNCC3)c3oc(-c4ccccc4)nc3n2)cc1", "CATEGORY": "inactive"}
{"COMPOUND": "C#CCNC(=O)[C@H](CC)[C@H]1CC[C@H](C)[C@H]([C@@H](C)[C@H](O)[C@H](C)C(=O)[C@H](CC)C2O[C@]3(C=CC(=O)[C@]4(CC[C@@](C)([C@H]5CC[C@](O)(CC)[C@H](C)O5)O4)O3)[C@H](C)C[C@@H]2C)O1 (stereo not given in full)", "CATEGORY": "inactive"}
{"COMPOUND": "C[C@]12CC[C@@H]3c4cc(OC(F)F)c(OS(N)(=O)=O)cc4CC[C@H]3[C@@H]1CC[C@@H]2O", "CATEGORY": "inactive"}
{"COMPOUND": "N#CCCN1C/C(=C/c2ccc(Cl)cc2)C(=O)/C(=C/c2ccc(Cl)cc2)C1", "CATEGORY": "inactive"}
{"COMPOUND": "COC1=C(OC)C(=O)C(SC/C=C(\\C)CCCC(C)CCCC(C)CCCC(C)C)=CC1=O (stereo not given)", "CATEGORY": "inactive"}
{"COMPOUND": "CCCCCCCCCCCCCCCC(=O)N1CCCC1C(=O)NCC(=O)NC(Cc1ccccc1)C(=O)NC(C)C(=O)NC(CO)C(=O)NC(Cc1ccc(O)cc1)C(=O)NC(CCCCN)C(=O)NC(CC(C)C)C(=O)NC(CCCN=C(N)N)C(=O)N1CCCC1C(=O)NCC(N)=O (stereo not given) (Palmitoyl-PGFASYKLRPG-NH2; configuration not given here)", "CATEGORY": "inactive"}
{"COMPOUND": "c1ccc2c(c1)Nc1ccncc1S2", "CATEGORY": "inactive"}
{"COMPOUND": "CC(C)(O)CNc1nc(Nc2ccnc(C(F)(F)F)c2)nc(-c2cccc(C(F)(F)F)n2)n1", "CATEGORY": "inactive"}
{"COMPOUND": "CC(=O)NCc1cccc(C#Cc2cncnc2Nc2ccc(OCc3cccc(F)c3)c(Cl)c2)c1", "CATEGORY": "inactive"}
{"COMPOUND": "CCC1(O)C(=O)OCc2c1cc1n(c2=O)Cc2cc3c(NC(=O)CN)cccc3nc2-1 (stereo not given)", "CATEGORY": "active"}

Lookup: What was the test verdict on COC(=O)c1cc2c(cc1Cl)SC1=NN(C)C(N(C)C)N1S2(=O)=O (stereo not given) ?
Found: inactive

Lookup: Which outcome was entered for the compound Oc1ccc(C(c2ccc(O)cc2)c2ccc(Br)cn2)cc1 in this test?
Found: active

Lookup: What is the recorded call for this compound in the test? COc1ccc(-c2nc(/C=C3\SC(=NCc4ccccc4)NC3=O)c3ccccn23)cc1
Found: inactive

Lookup: Which outcome was assigned to c1ccc2cc(-c3n(Cc4ccc5ccccc5n4)c4ccccc4[n+]3Cc3ccc4ccccc4n3)ccc2c1 in this test?
Found: active

Lookup: Outcome? Oc1cccc2ccc(N/N=C/c3cc(CN4CCOCC4)c(O)c4ncccc34)nc12
Found: active

* * *

Tested on: HT29 colon
EXPERIMENT: NCI tumour cell line growth inhibition, 48 h
Recorded TGI by entry

{"MOLECULE": "Cc1cc(C)nc(SC2=C(Nc3cc(Cl)ccc3O)C(=O)N(Cc3ccccc3)C2=O)n1", "MEAS VALUE": "65 µM"}
{"MOLECULE": "N#CC(c1ccccn1)c1nc2ccccc2[nH]1 (configuration not stated)", "MEAS VALUE": "> 100 µM"}
{"MOLECULE": "O=C(/C=C/c1ccccc1)Oc1ccc(C(=O)/C=C/c2ccc(Cl)cc2)cc1", "MEAS VALUE": "> 100 µM"}
{"MOLECULE": "O=c1c2cc(S(=O)(=O)O)ccc2nc(COc2ccc(Oc3ccc(Cl)cc3Cl)cc2)n1-c1ccc(Oc2ccc(Cl)cc2)cc1Cl", "MEAS VALUE": "36 µM"}
{"MOLECULE": "C/C(=C\\c1cnc(C)s1)[C@@H]1C[C@@H]2O[C@@H]2CCC[C@H](C)[C@H](O)[C@@H](C)C(=O)C(C)(C)[C@@H](O)CC(=O)O1", "MEAS VALUE": "> 100 µM"}

Lookup: Given the entry N#CC1=C(/N=C/c2ccccc2)Oc2c(ccc3ccccc23)C1c1ccccc1 (configuration not stated) , report its measured TGI.
Found: > 100 µM

Lookup: What does the data say about its TGI? Entry: N#Cc1c2c(c(N)oc1=O)C(c1ccccc1)CC(=O)N2 (configuration not stated)
Found: > 100 µM

Lookup: # input molecule: CC1(c2ccccc2Cl)C(C#N)C(=O)NC(=O)C1C#N (configuration not stated) ; wanted: its TGI
Found: > 100 µM

Lookup: // TGI lookup, key: COc1cc(C(C)O)c[n+](Cc2ccccc2)c1 (configuration not stated)
Found: > 100 µM

Lookup: Which TGI is listed for CCCCCCCCCCCCC(Br)C(=O)NCC(N)=O (configuration not stated) ?
Found: 36 µM

Lookup: Would you kindly share the measured TGI for O=C(c1ccccc1)N(C(=O)c1ccccc1)c1nc(SCc2ccccc2)ns1 ?
Found: 84.8 µM

Lookup: Sample CCCC1CCC(=C2C(=O)CCC2=O)O1 (configuration not stated) — what was its TGI?
Found: > 100 µM

Lookup: Would you mind telling me what TGI value was observed for N#CC(C#N)c1ccc(C(=O)N2CCC[C@H]2CO)cc1 ?
Found: > 100 µM

Lookup: Param item = Nc1nc(Nc2ccccc2)c2[nH]cnc2n1 ; retrieve measured TGI.
Found: > 100 µM

Lookup: Consider the molecule COCCNC(=O)C1C(=O)C(=O)N(CCOC)C1=O (configuration not stated) and give its measured TGI.
Found: > 100 µM

Lookup: Field request: TGI | item: O=C(c1nc2ccccc2[nH]c1=O)C(O)c1ccccc1 (configuration not stated)
Found: > 100 µM

Lookup: Look up TGI: O=C(NC1CCN(Cc2ccccc2)CC1)c1ccc(I)cc1
Found: > 100 µM

Lookup: What TGI value was documented for this molecule, O=C1Nc2ccccc2N=CC1NC(=O)C(c1ccccc1)c1ccccc1 (configuration not stated) ?
Found: > 100 µM

Lookup: Entry under review: c1cnc2c(c1)ccc1cccnc12 . Reported TGI?
Found: > 100 µM

Lookup: Look at this molecule and give its reported TGI. COc1ccc(Oc2cccc(C3C4C(=O)N(c5ccc(C)c(Cl)c5)C(=O)C4ON3C(C(N)=O)c3ccccc3)c2)cc1 (configuration not stated)
Found: 19.8 µM

Lookup: For the molecule shown here, CN(C)C(=NCc1ccccc1)NC#N , give the reported TGI.
Found: > 100 µM

Lookup: Please report the recorded TGI for Cc1cc(N(CCC#N)CCC#N)ccc1/C(N=Nc1cccc(Cl)c1)=N/NC(=O)c1cc(Cl)ccc1O .
Found: 44.2 µM
